Each entry below carries its recorded Average response.
target: Drosophila OR47a (Drosophila melanogaster); construct: expressed in transfected cells; test: Calcium ion fluorescence (GCaMP6) assay, OR47a stable HEK293 cell line; format: cell-based; settings: OR47a cell line; odorant cc. 1 µM; mean of biological replicates
Sequence (P81921 whole entry): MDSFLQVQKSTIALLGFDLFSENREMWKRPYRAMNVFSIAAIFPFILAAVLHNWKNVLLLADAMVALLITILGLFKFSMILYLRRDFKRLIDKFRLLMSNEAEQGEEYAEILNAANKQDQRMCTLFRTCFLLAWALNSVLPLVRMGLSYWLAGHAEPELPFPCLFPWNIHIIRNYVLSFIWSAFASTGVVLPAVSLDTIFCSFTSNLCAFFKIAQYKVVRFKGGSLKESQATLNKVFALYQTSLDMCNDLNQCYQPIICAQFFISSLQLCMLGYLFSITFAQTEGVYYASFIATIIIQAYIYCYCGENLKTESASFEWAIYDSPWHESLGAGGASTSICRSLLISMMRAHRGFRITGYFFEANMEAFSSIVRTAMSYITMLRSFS
Sequence (Q9VNB5 whole entry partner): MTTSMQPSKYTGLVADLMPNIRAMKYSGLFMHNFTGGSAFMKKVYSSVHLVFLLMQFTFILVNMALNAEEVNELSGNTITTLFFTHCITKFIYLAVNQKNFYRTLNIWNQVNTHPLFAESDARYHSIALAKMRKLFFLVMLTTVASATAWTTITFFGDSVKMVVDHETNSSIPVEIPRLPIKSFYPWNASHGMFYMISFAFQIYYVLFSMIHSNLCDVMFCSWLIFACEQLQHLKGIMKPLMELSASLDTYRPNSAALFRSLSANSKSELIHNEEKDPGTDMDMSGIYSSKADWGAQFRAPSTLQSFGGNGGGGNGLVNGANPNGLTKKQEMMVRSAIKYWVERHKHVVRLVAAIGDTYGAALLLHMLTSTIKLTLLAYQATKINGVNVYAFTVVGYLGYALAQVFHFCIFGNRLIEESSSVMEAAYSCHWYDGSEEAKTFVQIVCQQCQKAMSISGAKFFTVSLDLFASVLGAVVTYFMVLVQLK
Output: the number by itself.

These recorded examples may help you get a feel for the data.
C=C1[C@H]2CC[C@@H]3[C@H]2C(C)(C)CCC[C@]13C [(+)-longifolene]	0.00
CCCCCC(=O)OCC [ethyl hexanoate]	0.0662
C=C(C)[C@H]1CC=C(C)CC1 [(R)-(+)-limonene]	0.05

Short answer for CCCC(O)CC (stereo not shown) : Average response was 0.00

Short answer for C=CC(O)C/C=C\CC (stereo not shown) : Average response was 0.00

Short answer for C=C1CCC2CC1C2(C)C (stereo not shown) : Average response was 0.00

Short answer for COC(=O)c1ccccc1 [methyl benzoate] : Average response was 0.0138

Short answer for CCCCCC(C)O (stereo not shown) : Average response was 0.00

Short answer for CCCOC(C)=O [propyl acetate] : Average response was 0.00

Short answer for CC1=CCC[C@@]2(C)[C@@H]3CC[C@]12CC3(C)C [(−)-α-neoclovene] : Average response was 0.00

Short answer for CC(=O)c1ccccc1 : Average response was 0.0171

Short answer for C=C1CC[C@H]2O[C@]2(C)CC[C@@H]2[C@@H]1CC2(C)C [(-)-caryophyllene oxide] : Average response was 0.00

Short answer for Cc1ccc(C(C)C)cc1 : Average response was 0.00
